System: S. typhimurium/E. coli reverse mutation, colony counts
Test: Bacterial reverse mutation test (aka Ames test) summary data;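 further: His-minus Salmonella and trp-minus E. coli WP2 uvrA pKM101 with or without liver S9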
Inconclusive results are not listed. Active and inactive are the calls of the source. How the calls were made is not given here.

>  <molecule>
S=c1[nH]c2ccccc2[nH]1

>  <outcome>
inactive; negative

$$$$
>  <molecule>
CCC=C1OC(=O)c2ccccc21

>  <outcome>
active; positive

$$$$
>  <molecule>
CCN(CC)c1ccc(C(=C2C=CC(=[N+](CC)CC)C=C2)c2ccc(S(=O)(=O)O)cc2S(=O)(=O)[O-])cc1

>  <outcome>
active; positive

$$$$
>  <molecule>
C=C(C)[C@@]12O[C@@]3(c4ccccc4)O[C@@H]1[C@@H]1[C@@H]4O[C@]4(CO)[C@@H](O)[C@]4(O)C(=O)C(C)=C[C@H]4[C@@]1(O3)[C@H](C)[C@H]2OC(=O)/C=C/C=C/c1ccccc1

>  <outcome>
inactive; negative

$$$$
>  <molecule>
O=C1OC(=O)c2c(Br)c(Br)c(Br)c(Br)c21

>  <outcome>
inactive; negative

$$$$
>  <molecule>
N#[N+]c1ccc2c(S(=O)(=O)[O-])cccc2c1O

>  <outcome>
active; positive

$$$$
>  <molecule>
COc1ccc(Cc2nccc3cc(OC)c(OC)cc23)cc1OC

>  <outcome>
inactive; negative

$$$$
>  <molecule>
C=CCOC(C)=O

>  <outcome>
active; positive

$$$$
>  <molecule>
OCC(CO)(CBr)CBr

>  <outcome>
active; positive

$$$$
>  <molecule>
ClC(Cl)Br

>  <outcome>
inactive; negative

$$$$
>  <molecule>
C[Si](C)(C)N[Si](C)(C)C

>  <outcome>
inactive; negative

$$$$
>  <molecule>
CC1CCCCC1CO (stereo unspecified)

>  <outcome>
inactive; negative

$$$$
>  <molecule>
CCN(CC)CCNc1ccc(CO)c2sc3ccccc3c(=O)c12

>  <outcome>
active; positive

$$$$
>  <molecule>
O=C(O)/C=C/C(=O)O

>  <outcome>
inactive; negative

$$$$
>  <molecule>
Nc1ccccc1C(=O)OCCc1ccccc1

>  <outcome>
inactive; negative

$$$$
>  <molecule>
C#CCO

>  <outcome>
active; positive

$$$$
>  <molecule>
O=C1C2CC=CCC2C(=O)N1SC(Cl)(Cl)Cl (stereo unspecified)

>  <outcome>
active; positive

$$$$
>  <molecule>
CC(=O)Nc1ccccc1C

>  <outcome>
active; positive

$$$$
>  <molecule>
N=C1C=CC(=C(c2ccc(N)cc2)c2ccc(N)cc2)C=C1

>  <outcome>
active; positive

$$$$
>  <molecule>
O=C1CCCCC1

>  <outcome>
inactive; negative

$$$$
>  <molecule>
CCOC=O

>  <outcome>
inactive; negative

$$$$
>  <molecule>
ClCBr

>  <outcome>
active; positive

$$$$
>  <molecule>
Nc1ccc(Cc2ccc(N)cc2)cc1

>  <outcome>
active; positive

$$$$
>  <molecule>
CCN(C=O)CC

>  <outcome>
inactive; negative

$$$$
>  <molecule>
O=C(O)CNCP(=O)(O)O

>  <outcome>
inactive; negative

$$$$
>  <molecule>
CCOc1ccc(N=Nc2ccc(-c3ccc(N=Nc4c(O)ccc5cc(S(=O)(=O)O)cc(S(=O)(=O)O)c45)c(C)c3)cc2C)cc1

>  <outcome>
inactive; negative

$$$$
>  <molecule>
O=c1[nH][nH]c(=O)c2cc([N+](=O)[O-])ccc12

>  <outcome>
active; positive

$$$$
>  <molecule>
CCCCCCCCCCCCCCCCCCCCCCCCCCCCO

>  <outcome>
inactive; negative

$$$$
>  <molecule>
COc1cc([N+](=O)[O-])ccc1N

>  <outcome>
active; positive

$$$$
>  <molecule>
CCNNCC

>  <outcome>
inactive; negative

$$$$
>  <molecule>
C=CC#N

>  <outcome>
active; positive

$$$$
>  <molecule>
O=Cc1ccc(Cl)cc1

>  <outcome>
inactive; negative

$$$$
>  <molecule>
C=C[C@H]1CN2CC[C@H]1C[C@@H]2[C@@H](O)c1ccnc2ccc(OC)cc12

>  <outcome>
inactive; negative

$$$$
>  <molecule>
ClSC(Cl)(Cl)Cl

>  <outcome>
active; positive

$$$$
>  <molecule>
NCc1ccc(CN)cc1

>  <outcome>
inactive; negative

$$$$
>  <molecule>
COC(=O)CCCC(=O)OC

>  <outcome>
inactive; negative

$$$$
>  <molecule>
COc1ccc(N=[N+]([O-])c2ccc(OC)cc2)cc1

>  <outcome>
active; positive

$$$$
>  <molecule>
CCCCCCCC/C=C\CCCCCCCC(=O)O (tested in a mixture with another compound)

>  <outcome>
inactive; negative

$$$$
>  <molecule>
Nc1ccc2ccccc2c1N=Nc1ccc([N+](=O)[O-])cc1

>  <outcome>
active; positive

$$$$
>  <molecule>
O=S(=O)(O)c1ccc(N=Nc2c(O)ccc3cc(S(=O)(=O)O)ccc23)cc1

>  <outcome>
inactive; negative

$$$$
>  <molecule>
Cc1ccc(C#N)cc1

>  <outcome>
inactive; negative

$$$$
>  <molecule>
Nc1cccc2c(N)cccc12

>  <outcome>
active; positive

$$$$
>  <molecule>
O=C1[O][Bi][O]c2ccccc21

>  <outcome>
inactive; negative

$$$$
>  <molecule>
Nc1c(Br)cc([N+](=O)[O-])cc1[N+](=O)[O-]

>  <outcome>
active; positive

$$$$
>  <molecule>
[Cd+2].[Cl-].[Cl-]

>  <outcome>
inactive; negative

$$$$
>  <molecule>
C[C@H](Cn1cnc2c(N)ncnc21)OCP(=O)(O)O

>  <outcome>
active; positive

$$$$
>  <molecule>
c1ccc2cc3c(cc2c1)-c1cccc2cccc-3c12

>  <outcome>
active; positive

$$$$
>  <molecule>
Cc1c(O)cccc1O

>  <outcome>
inactive; negative

$$$$
>  <molecule>
CN1CCCC1=O

>  <outcome>
inactive; negative

$$$$
>  <molecule>
O=C(NC(S)c1nc2ccccc2s1)NC(S)c1nc2ccccc2s1 (stereo unspecified)

>  <outcome>
active; positive

$$$$
>  <molecule>
COC(=O)c1ccc(C=O)cc1

>  <outcome>
inactive; negative

$$$$
>  <molecule>
CC(C)CC(C)N (stereo unspecified)

>  <outcome>
inactive; negative

$$$$
>  <molecule>
COP(=O)(OC)OC

>  <outcome>
active; positive

$$$$
>  <molecule>
C(CCOCC1CO1)COCC1CO1 (stereo unspecified)

>  <outcome>
active; positive

$$$$
>  <molecule>
C=CC(=O)OCC1CO1 (stereo unspecified)

>  <outcome>
active; positive

$$$$

###

System: S. typhimurium/E. coli reverse mutation, colony counts
Assay: Bacterial reverse mutation test (aka Ames test) summary data;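 further: His-minus Salmonella and trp-minus E. coli WP2 uvrA pKM101 with or without liver S9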
Records with an inconclusive call do not appear. Calls of active or inactive are those of the source. No rule for the calls is given here.
Outcome codes: active, inactive

>  <molecule>
CC(O)CCl (stereo not given)

>  <class-assignment>
active

$$$$
>  <molecule>
C=CCOC(=O)COCCC(C)C

>  <class-assignment>
inactive

$$$$
>  <molecule>
Cc1ccc2cccnc2c1

>  <class-assignment>
active

$$$$
>  <molecule>
NCCCNCCCN

>  <class-assignment>
inactive

$$$$
>  <molecule>
OCC(Br)=C(Br)CO

>  <class-assignment>
active

$$$$
>  <molecule>
O=Nc1ccc(Nc2ccccc2)cc1

>  <class-assignment>
active

$$$$
>  <molecule>
CN(C)CCCN

>  <class-assignment>
inactive

$$$$
>  <molecule>
CCNCC

>  <class-assignment>
inactive

$$$$
>  <molecule>
COc1cc2c(cc1OC)[C@@]13CCN4CC5=CCO[C@H]6CC(=O)N2[C@H]1[C@H]6[C@H]5C[C@H]43

>  <class-assignment>
inactive

$$$$
>  <molecule>
CCCNC(=O)NS(=O)(=O)c1ccc(Cl)cc1

>  <class-assignment>
inactive

$$$$
>  <molecule>
NCCC(=O)O

>  <class-assignment>
inactive

$$$$
>  <molecule>
CCCCn1cc[n+](C)c1

>  <class-assignment>
inactive

$$$$
>  <molecule>
Cn1cnc([N+](=O)[O-])c1Sc1ncnc2nc[nH]c12

>  <class-assignment>
active

$$$$
>  <molecule>
NC(=O)CC(N)=O

>  <class-assignment>
inactive

$$$$
>  <molecule>
COc1cc([N+](=O)[O-])ccc1N=NC(C(C)=O)C(=O)Nc1ccccc1OC (stereo not given)

>  <class-assignment>
inactive

$$$$
>  <molecule>
Nc1ccccc1-c1ccccc1

>  <class-assignment>
active

$$$$
>  <molecule>
c1ccoc1

>  <class-assignment>
active

$$$$
>  <molecule>
COc1cc(C=O)ccc1O

>  <class-assignment>
inactive

$$$$
>  <molecule>
Nc1ccc(O)c(C(=O)O)c1

>  <class-assignment>
inactive

$$$$
>  <molecule>
Cc1ccc(C(C)(C)O)cc1

>  <class-assignment>
inactive

$$$$
>  <molecule>
S=C([S-])NCCNC(=S)[S-].[Zn+2]

>  <class-assignment>
inactive

$$$$
>  <molecule>
O=C1CCc2ccccc2O1

>  <class-assignment>
inactive

$$$$
>  <molecule>
ClCc1ccccn1

>  <class-assignment>
active

$$$$
>  <molecule>
CC(N)=S

>  <class-assignment>
inactive

$$$$
>  <molecule>
C=CCN=C=S

>  <class-assignment>
active

$$$$
>  <molecule>
O=C1C=CC(=O)C=C1

>  <class-assignment>
inactive

$$$$
>  <molecule>
N#CC(Cl)Cl

>  <class-assignment>
active

$$$$
>  <molecule>
O=P(Oc1ccccc1)(Oc1ccccc1)Oc1ccccc1

>  <class-assignment>
inactive

$$$$
>  <molecule>
Cc1ccc2c(ccc3ccccc32)c1

>  <class-assignment>
active

$$$$
>  <molecule>
CCCCCCCCCCC1CO1 (stereo not given)

>  <class-assignment>
inactive

$$$$
>  <molecule>
[O-]/[N+](=N\O)c1ccccc1

>  <class-assignment>
active

$$$$
>  <molecule>
O=C1OC(=O)c2c(Cl)c(Cl)c(Cl)c(Cl)c21

>  <class-assignment>
inactive

$$$$
>  <molecule>
CC(C)(c1cc(Br)c(O)c(Br)c1)c1cc(Br)c(O)c(Br)c1

>  <class-assignment>
inactive

$$$$
>  <molecule>
CCCCCCCCCCCCOS(=O)(=O)O

>  <class-assignment>
inactive

$$$$
>  <molecule>
CC=NO

>  <class-assignment>
active

$$$$
>  <molecule>
CCCCCCOC(=O)c1ccccc1C(=O)OCCCCCC

>  <class-assignment>
inactive

$$$$
>  <molecule>
CCCCCCCCCCCCCCCCCCCC

>  <class-assignment>
inactive

$$$$
>  <molecule>
c1ccc2[nH]c(-c3cscn3)nc2c1

>  <class-assignment>
active

$$$$
>  <molecule>
O=C1N(CO)C(O)C(O)N1CO (stereo not given)

>  <class-assignment>
active

$$$$
>  <molecule>
Oc1c(Cl)cc(Cl)c(Cl)c1Cc1c(O)c(Cl)cc(Cl)c1Cl

>  <class-assignment>
inactive

$$$$
>  <molecule>
NCCNc1cccc2ccccc12

>  <class-assignment>
active

$$$$
>  <molecule>
C=C(C)OC(C)=O

>  <class-assignment>
inactive

$$$$
>  <molecule>
CC1CCC(C(C)CS)CC1S (stereo not given)

>  <class-assignment>
inactive

$$$$
>  <molecule>
O=C1OC(c2ccc(O)cc2)(c2ccc(OC3O[C@H](C(=O)O)[C@@H](O)[C@H](O)[C@H]3O)cc2)c2ccccc21 (stereo not given in full)

>  <class-assignment>
inactive

$$$$
>  <molecule>
CNCCO

>  <class-assignment>
inactive

$$$$
>  <molecule>
O=C1c2c(Br)c(Br)c(Br)c(Br)c2C(=O)N1CCN1C(=O)c2c(Br)c(Br)c(Br)c(Br)c2C1=O

>  <class-assignment>
inactive

$$$$
>  <molecule>
O=[N+]([O-])c1ccc(Cl)c(Cl)c1

>  <class-assignment>
active

$$$$
>  <molecule>
CC(=O)O[C@H](CC(=O)[O-])C[N+](C)(C)C

>  <class-assignment>
inactive

$$$$
>  <molecule>
O=C(O)c1cc(O)c2c(c1)[C@H]([C@H]1c3cc(C(=O)O)cc(O)c3C(=O)c3c(O[C@@H]4O[C@H](CO)[C@@H](O)[C@H](O)[C@H]4O)cccc31)c1cccc(O[C@@H]3O[C@H](CO)[C@@H](O)[C@H](O)[C@H]3O)c1C2=O

>  <class-assignment>
inactive

$$$$
>  <molecule>
O=NO

>  <class-assignment>
active

$$$$
>  <molecule>
C[CH2][Pb]([CH2]C)([CH2]C)[CH2]C

>  <class-assignment>
inactive

$$$$
>  <molecule>
C=C(C)[C@H]1CC=C(C)C(=O)C1

>  <class-assignment>
inactive

$$$$
>  <molecule>
CC(=O)CC(N)=O

>  <class-assignment>
active

$$$$
>  <molecule>
Oc1ccc(O)cc1

>  <class-assignment>
inactive

$$$$
>  <molecule>
CN1C(CSCC(F)(F)F)Nc2cc(Cl)c(S(N)(=O)=O)cc2S1(=O)=O (stereo not given)

>  <class-assignment>
inactive

$$$$
>  <molecule>
CNc1ccccc1N

>  <class-assignment>
active

$$$$
>  <molecule>
CCCC=C(C=O)CC

>  <class-assignment>
inactive

$$$$
>  <molecule>
CC1=CC[C@H]2C(C)=CC[C@@H](C(C)C)[C@@H]2C1

>  <class-assignment>
inactive

$$$$
>  <molecule>
CCCCOC(=O)c1ccccc1C(=O)OCCCC

>  <class-assignment>
inactive

$$$$
>  <molecule>
NCCS(=O)(=O)O

>  <class-assignment>
inactive

$$$$
